# TESTED_SYSTEM: Human immunodeficiency virus type 1 protease (Human immunodeficiency virus 1)
RESULT_TYPE: Ki (nM)
Field format: number, assumed nM, no unit text.

1) CCC(C1=C(O)OC(CC)(c2cccc(NS(=O)(=O)c3cn(C)cn3)c2)CC1=O)c1cccc(NS(=O)(=O)c2cn(C)cn2)c1 (stereo not drawn)
4.7

Tell me its Ki on Human immunodeficiency virus type 1 protease (Human immunodeficiency virus 1): CCC(C1=C(O)OC(CC)(c2cccc(NS(=O)(=O)c3ccc(C#N)cn3)c2)CC1=O)c1cccc(NS(=O)(=O)c2ccc(C#N)cn2)c1 (stereo not drawn) 0.1

Tell me its Ki on Human immunodeficiency virus type 1 protease (Human immunodeficiency virus 1): CCCC1(CCc2ccccc2)CC(=O)C(C(CC)c2cccc(NS(=O)(=O)c3cn(C)cn3)c2)=C(O)O1 (stereo not drawn) 1
